# Test system: OVCAR-4 ovarian
# measurement.protocol: NCI-60 one-dose screen, 48 h (100 = growth as untreated, 0 = no growth, -100 = all killed)
# applied.conditions: 10 µM unless noted
Compounds without any hit were thinned out: in the full panel of roughly 83,000, 20% have a hit. Active and inactive are the calls of the source. How the source made its calls: active means growth percent below 10; inactive means the rest.
property.label: growth

**Q:** Answer with the recorded growth for the compound listed here: CCCN1C(=O)N(CCC)C2C1NN=c1s/c(=C3\C(=O)N(C(C)C)c4ccccc43)c(=O)n12 (stereo not given)
**A:** 42.9% (inactive)

**Q:** Report growth for `COC(=O)[C@H]1CCCN1C(=O)[C@H]1CCCN1C(=O)[C@H](Cc1c[nH]c2ccccc12)NC(=S)Nc1cc(C(F)(F)F)cc(C(F)(F)F)c1`
**A:** 62% (inactive)

**Q:** Given the compound `COc1cc(/C=C2\CN(C)C/C(=C\c3cc(CN4CCOCC4)c(O)c(OC)c3)C2=O)cc(CN2CCOCC2)c1O` , write its reported growth.
**A:** 58.9% (inactive)

###

# Tested on: SK-MEL-2 melanoma
# measurement.protocol: NCI-60 one-dose screen, 48 h (100 = growth as untreated, 0 = no growth, -100 = all killed)
# applied.conditions: 10 µM unless noted
The panel holds about 83,000 compounds, 20% with a hit somewhere; the sample as a whole holds those more often.
Listed molecules paired with reported growth
Kindly provide the numeric value in % only, without the unit symbol.

Examples from the recorded data:
molecule	unit.abbreviation	growth
O=C1/C=C/[C@@H](O)[C@@H]2C[C@@H](O)C[C@H]2/C=C/CCCCO1	%	8.85
CCn1c(-c2nonc2Nc2ccc(OC)cc2)nc2ccccc21	%	105

Please look at the following molecule next.
**Q:** Given CCCSC1=NC2C(N(CC)C(=O)N2CC)N1/N=C/C=C/c1ccccc1[N+](=O)[O-] (stereo unspecified) , report its growth on SK-MEL-2 melanoma.
**A:** 48.6

###

# Tested on: CCRF-CEM leukemia
# measurement.protocol: NCI-60 one-dose screen, 48 h (100 = growth as untreated, 0 = no growth, -100 = all killed)
# applied.conditions: 10 µM unless noted
This is part of a sample that, as a whole, favours compounds with a hit. Of some 83,000 tested, about 20% had one in any assay.
Define the label as yes (1) when growth is strictly less than 30% and as no (0) in all remaining cases.

compound	discrete.label
FC(F)(F)c1cccc(Nc2nc(-c3ccccc3)nc3ncccc23)c1	yes (1)
Fc1ccc(Oc2ccc(Nc3ncnc4onc(-c5ccccc5)c34)cc2)cc1	no (0)
COc1ccc(Cn2c(Br)c3c(c2-c2cc(OC)c(OC)c(OC)c2)CCc2sc(NC(=O)c4ccc(OC)cc4)nc2-3)cc1	no (0)

**Q:** Quick check: growth of `COc1ccc(C2=C(c3cccc(OC)c3)C(=O)c3ccc(C)nc3C2=O)cc1` under 30%?
**A:** yes (1)

**Q:** Does the reported growth of the following compound sit strictly below 30%? `COc1ccc(CCN2CCC(CN(C)Cc3cnn(-c4ccccc4)c3)CC2)cc1`
**A:** yes (1)

**Q:** Is growth strictly under 30% for the entry `O=C1C(Cl)=C(NCc2ccco2)C(=O)c2ccccc21` ?
**A:** yes (1)

###

# System: SK-MEL-5 melanoma
# measurement.protocol: NCI-60 one-dose screen, 48 h (100 = growth as untreated, 0 = no growth, -100 = all killed)
# applied.conditions: 10 µM unless noted
This is part of a sample that, as a whole, favours compounds with a hit. Of some 83,000 tested, about 20% had one in any assay.
# note: boundary value 80% maps to n; growth below it maps to y

The following compounds have reported results that may help.
compound	discrete.label
COc1nc2c(c(=O)n1C)N=C1c3ccccc3C(=O)C1C(c1ccccc1)N2 (configuration not stated)	n
COC(=O)c1c2c(c(C)[n+]([O-])c1C)C(=O)C=C(NCc1ccccc1)C2=O	y
O=Cc1c(OCc2cnnn2CC(=O)Nc2ccc(Br)cc2)ccc2ccccc12	n
CSc1nc2c(c(=O)[nH]1)N=C1c3ccccc3C(=O)C1C(c1ccc(F)cc1)N2 (configuration not stated)	y
CC[C@H](C)[C@@H](C(=O)OC)n1cc(CNC(=O)[C@@H](Cc2ccccc2)NC(=O)OCc2ccccc2)nn1	n
O=C(/C=C/c1ccc(C(F)(F)F)cc1)c1ccc(Nc2nc(NCCO)nc(Nc3ccc(Cl)cc3)n2)cc1	n
CCOc1ccc(Nc2ccnc3cc(Cl)ccc23)cc1	y
NC(=O)CSc1nc(-c2ccc(F)cc2)cc(-c2ccco2)n1	n
CCOc1cccc(/C=N/NC(=O)C(=O)Nc2cccc(C(F)(F)F)c2)c1O	y
O=C1/C(=C\c2ccc[nH]2)c2ccccc2N1c1ccccc1	n

**Q:** For `COC(=O)/C(CCC=C(C)C)=C1\[C@@H](OC(C)=O)C[C@@]2(C)[C@H]1CC(=O)N[C@H]1[C@@]3(C)CCNC(=O)[C@@H](C)[C@@H]3CC[C@@]12C` , is the recorded growth below the cut-off of 80%?
**A:** n

**Q:** Decide: growth of `CN1CCN(c2nc(Nc3ccc(O)cc3)nc3ccccc23)CC1` strictly below 80%?
**A:** y
